assay: Baboon plasma analyses: blood kinetics and metabolism; assay type: in vivo, baboon (Papio anubis); conditions: in vivo, iv; baboon plasma, 120 min after injection; read-out: % of Unchanged N-(3-[^18 F]fluoropropyl)spiroperidol
RESULT_TYPE: remaining at 2 h

Kindly note the recorded remaining at 2 h for O=C(CCCN1CCC2(CC1)C(=O)N(CCC[18F])CN2c1ccccc1)c1ccc(F)cc1 [N-(3-[^18 F]fluoropropyl)spiroperidol] , which is 22%

###

experiment: Baboon plasma analyses: blood kinetics and metabolism; format: in vivo, baboon (Papio anubis); conditions: in vivo, iv; baboon plasma, 4.0 min after injection; read-out: % of Unchanged N-(3-[^18 F]fluoropropyl)spiroperidol
RESULT_TYPE: remaining at 4 min (%)
Answers are plain numbers, in %.

In plain terms, O=C(CCCN1CCC2(CC1)C(=O)N(CCC[18F])CN2c1ccccc1)c1ccc(F)cc1 [N-(3-[^18 F]fluoropropyl)spiroperidol] has a documented remaining at 4 min of 82
